Experiment: Approximate ambient-temperature solubility, solvent addition method
Format: physicochemical
Details: organic solvent or mixture, thermodynamic from solid; p-dioxane, ambient temperature
Procedure: The approximate ambient-temperature solubilities of noribogaine hydrochloride Form A were measured in a variety of solvents and solvent mixtures using the solvent addition method (Table 2). The solubility of noribogaine hydrochloride ansolvate were determined as tabulated below.
Where a name gives a salt, the structure may show the parent alone.
Measurement Name: solubility

# input Which solubility reading was recorded for the molecule CC[C@H]1CC2C[C@H]3c4[nH]c5ccc(O)cc5c4CCN(C2)C13 [HCl, Form A, noribogaine hydrochloride] ?
# output < 1000 µg/mL

----------
Test: Approximate ambient-temperature solubility, solvent addition method
Assay type: physicochemical
Conditions: organic solvent or mixture, thermodynamic from solid; chloroform, ambient temperature
Protocol: The approximate ambient-temperature solubilities of noribogaine hydrochloride Form A were measured in a variety of solvents and solvent mixtures using the solvent addition method (Table 2). The solubility of noribogaine hydrochloride ansolvate were determined as tabulated below.
Structures can show the parent of a compound that is named as a salt.
Measurement Name: solubility

# input Value lookup for solubility; key = CC[C@H]1CC2C[C@H]3c4[nH]c5ccc(O)cc5c4CCN(C2)C13 [HCl, Form A, noribogaine hydrochloride]
# output < 1000 µg/mL
